# credit: ChEMBL document CHEMBL1154611

- target_system: UniProt Q12809
- test_summary: Inhibition of human ERG expressed in HEK cells at 30 uM
- Format: cell-based, HEK293
- assay_conditions: HEK cells expressing human ERG
Entries annotated with measured inhibition at 30 µM
reported_endpoint: inhibition at 30 µM (%)

CC[C@H]1OC(=O)[C@H](C)[C@@H](O[C@H]2C[C@@](C)(OC)[C@@H](O)[C@H](C)O2)[C@H](C)[C@@H](O[C@@H]2O[C@H](C)C[C@H](N(C)C(C)C)[C@H]2O)[C@](C)(O)C[C@@H](C)[C@H](OCC(=O)NC2CCOCC2)[C@H](C)[C@@H](O)[C@]1(C)O | 23
CC[C@H]1OC(=O)[C@H](C)[C@@H](O[C@H]2C[C@@](C)(OC)[C@@H](O)[C@H](C)O2)[C@H](C)[C@@H](O[C@@H]2O[C@H](C)C[C@H](N(C)C(C)C)[C@H]2O)[C@](C)(O)C[C@@H](C)[C@H](OCCCC(=O)NC)[C@H](C)[C@@H](O)[C@]1(C)O | 13
CC[C@H]1OC(=O)[C@H](C)[C@@H](O[C@H]2C[C@@](C)(OC)[C@@H](O)[C@H](C)O2)[C@H](C)[C@@H](O[C@@H]2O[C@H](C)C[C@H](N(C)C(C)C)[C@H]2O)[C@](C)(O)C[C@@H](C)[C@H](OCc2cccc(C(=O)NC)c2)[C@H](C)[C@@H](O)[C@]1(C)O | 63
CC[C@H]1OC(=O)[C@H](C)[C@@H](O[C@H]2C[C@@](C)(OC)[C@@H](O)[C@H](C)O2)[C@H](C)[C@@H](O[C@@H]2O[C@H](C)C[C@H](N(C)C(C)C)[C@H]2O)[C@](C)(O)C[C@@H](C)[C@H](OCC(=O)Nc2cnccn2)[C@H](C)[C@@H](O)[C@]1(C)O | 40

----------
Entries annotated with measured inhibition at 300 µM
- target_system: hERG (KCNH2) (Homo sapiens)
- Sequence (Q12809 whole entry): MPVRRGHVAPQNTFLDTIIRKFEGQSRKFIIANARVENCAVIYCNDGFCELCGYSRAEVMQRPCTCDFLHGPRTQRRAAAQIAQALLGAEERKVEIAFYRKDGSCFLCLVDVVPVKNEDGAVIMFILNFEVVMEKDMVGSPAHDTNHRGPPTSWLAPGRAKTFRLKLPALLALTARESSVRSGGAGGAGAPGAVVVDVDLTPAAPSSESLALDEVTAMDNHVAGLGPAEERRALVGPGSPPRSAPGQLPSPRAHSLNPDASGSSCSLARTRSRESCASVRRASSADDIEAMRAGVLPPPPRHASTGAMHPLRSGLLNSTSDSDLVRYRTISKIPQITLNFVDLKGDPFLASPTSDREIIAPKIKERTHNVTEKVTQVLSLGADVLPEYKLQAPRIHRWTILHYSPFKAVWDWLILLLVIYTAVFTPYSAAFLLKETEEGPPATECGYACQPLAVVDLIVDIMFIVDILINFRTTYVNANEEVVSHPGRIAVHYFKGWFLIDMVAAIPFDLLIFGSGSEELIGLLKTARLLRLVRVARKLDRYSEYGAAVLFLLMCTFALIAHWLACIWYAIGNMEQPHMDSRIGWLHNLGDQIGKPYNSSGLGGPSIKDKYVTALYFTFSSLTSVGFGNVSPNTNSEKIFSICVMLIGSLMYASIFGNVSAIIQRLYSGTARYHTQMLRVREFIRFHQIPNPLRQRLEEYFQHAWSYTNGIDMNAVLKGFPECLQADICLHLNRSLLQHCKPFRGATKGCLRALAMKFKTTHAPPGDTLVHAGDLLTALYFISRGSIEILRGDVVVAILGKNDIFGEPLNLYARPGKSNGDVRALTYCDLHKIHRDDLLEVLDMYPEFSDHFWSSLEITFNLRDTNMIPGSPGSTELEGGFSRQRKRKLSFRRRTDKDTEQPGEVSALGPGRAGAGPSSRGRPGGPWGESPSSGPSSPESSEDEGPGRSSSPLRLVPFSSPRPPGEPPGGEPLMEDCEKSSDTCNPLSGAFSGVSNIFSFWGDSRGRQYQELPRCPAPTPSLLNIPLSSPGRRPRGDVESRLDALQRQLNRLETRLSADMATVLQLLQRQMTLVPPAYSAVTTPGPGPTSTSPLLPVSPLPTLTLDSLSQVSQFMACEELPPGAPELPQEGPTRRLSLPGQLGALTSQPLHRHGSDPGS
- test_summary: Inhibition of human ERG expressed in HEK cells at 300 uM
- Type: cell-based, HEK293
- assay_conditions: HEK cells expressing human ERG
reported_endpoint: inhibition at 300 µM (%)

CC[C@H]1OC(=O)[C@H](C)[C@@H](O[C@H]2C[C@@](C)(OC)[C@@H](O)[C@H](C)O2)[C@H](C)[C@@H](O[C@@H]2O[C@H](C)C[C@H](N(C)C(C)C)[C@H]2O)[C@](C)(O)C[C@@H](C)[C@H](OCC(=O)NC2CC2)[C@H](C)[C@@H](O)[C@]1(C)O | 60
CC[C@H]1OC(=O)[C@H](C)[C@@H](O[C@H]2C[C@@](C)(OC)[C@@H](O)[C@H](C)O2)[C@H](C)[C@@H](O[C@@H]2O[C@H](C)C[C@H](N(C)C(C)C)[C@H]2O)[C@](C)(O)C[C@@H](C)[C@H](OCC(=O)NCCOC)[C@H](C)[C@@H](O)[C@]1(C)O | 93
CC[C@H]1OC(=O)[C@H](C)[C@@H](O[C@H]2C[C@@](C)(OC)[C@@H](O)[C@H](C)O2)[C@H](C)[C@@H](O[C@@H]2O[C@H](C)C[C@H](N(C)C(C)C)[C@H]2O)[C@](C)(O)C[C@@H](C)[C@H](OCC(N)=O)[C@H](C)[C@@H](O)[C@]1(C)O | 51
CC[C@H]1OC(=O)[C@H](C)[C@@H](O[C@H]2C[C@@](C)(OC)[C@@H](O)[C@H](C)O2)[C@H](C)[C@@H](O[C@@H]2O[C@H](C)C[C@H](N(C)C(C)C)[C@H]2O)[C@](C)(O)C[C@@H](C)[C@H](OCC(=O)NOC)[C@H](C)[C@@H](O)[C@]1(C)O | 82
CC[C@H]1OC(=O)[C@H](C)[C@@H](O[C@H]2C[C@@](C)(OC)[C@@H](O)[C@H](C)O2)[C@H](C)[C@@H](O[C@@H]2O[C@H](C)C[C@H](N(C)C(C)C)[C@H]2O)[C@](C)(O)C[C@@H](C)[C@H](OCCCCC(=O)NC)[C@H](C)[C@@H](O)[C@]1(C)O | 45
CC[C@H]1OC(=O)[C@H](C)[C@@H](O[C@H]2C[C@@](C)(OC)[C@@H](O)[C@H](C)O2)[C@H](C)[C@@H](O[C@@H]2O[C@H](C)C[C@H](N(C)C(C)C)[C@H]2O)[C@](C)(O)C[C@@H](C)[C@H](OCCCCCC(=O)NC)[C@H](C)[C@@H](O)[C@]1(C)O | 61
CC[C@H]1OC(=O)[C@H](C)[C@@H](O[C@H]2C[C@@](C)(OC)[C@@H](O)[C@H](C)O2)[C@H](C)[C@@H](O[C@@H]2O[C@H](C)C[C@H](N(C)C(C)C)[C@H]2O)[C@](C)(O)C[C@@H](C)[C@H](OCC(=O)NCC(F)(F)F)[C@H](C)[C@@H](O)[C@]1(C)O | 82

----------
Entries annotated with measured pEC50
- target_system: Motilin receptor (Oryctolagus cuniculus, UniProt A5A4K8)
- Sequence (A5A4K8 whole entry): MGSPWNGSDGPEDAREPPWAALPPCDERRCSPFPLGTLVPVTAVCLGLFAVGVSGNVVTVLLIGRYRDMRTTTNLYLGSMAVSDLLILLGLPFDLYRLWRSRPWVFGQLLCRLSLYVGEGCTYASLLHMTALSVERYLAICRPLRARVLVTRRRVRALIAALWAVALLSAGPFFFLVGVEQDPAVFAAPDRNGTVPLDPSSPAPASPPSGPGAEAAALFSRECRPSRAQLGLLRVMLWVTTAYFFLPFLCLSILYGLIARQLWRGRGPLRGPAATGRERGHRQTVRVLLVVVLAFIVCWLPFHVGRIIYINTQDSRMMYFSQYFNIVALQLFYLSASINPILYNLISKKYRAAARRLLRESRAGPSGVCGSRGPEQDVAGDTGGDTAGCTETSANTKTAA
- test_summary: Agonist activity at motilin receptor in rabbit smooth muscle assessed as maximal possible tissue contraction
pEC50: −log10 of the molar value.
reported_endpoint: pEC50

CCNC(=O)CO[C@@H]1[C@H](C)[C@@H](O)[C@](C)(O)[C@@H](CC)OC(=O)[C@H](C)[C@@H](O[C@H]2C[C@@](C)(OC)[C@@H](O)[C@H](C)O2)[C@H](C)[C@@H](O[C@@H]2O[C@H](C)C[C@H](N(C)C(C)C)[C@H]2O)[C@](C)(O)C[C@H]1C | 7.17
CC[C@H]1OC(=O)[C@H](C)[C@@H](O[C@H]2C[C@@](C)(OC)[C@@H](O)[C@H](C)O2)[C@H](C)[C@@H](O[C@@H]2O[C@H](C)C[C@H](N(C)C(C)C)[C@H]2O)[C@](C)(O)C[C@@H](C)[C@H](OCCCCCC(=O)NC)[C@H](C)[C@@H](O)[C@]1(C)O | 6.82
CC[C@H]1OC(=O)[C@H](C)[C@@H](O[C@H]2C[C@@](C)(OC)[C@@H](O)[C@H](C)O2)[C@H](C)[C@@H](O[C@@H]2O[C@H](C)C[C@H](N(C)C(C)C)[C@H]2O)[C@](C)(O)C[C@@H](C)[C@H](OCC(=O)NC2CCC2)[C@H](C)[C@@H](O)[C@]1(C)O | 7.55
CC[C@H]1OC(=O)[C@H](C)[C@@H](O[C@H]2C[C@@](C)(OC)[C@@H](O)[C@H](C)O2)[C@H](C)[C@@H](O[C@@H]2O[C@H](C)C[C@H](N(C)C(C)C)[C@H]2O)[C@](C)(O)C[C@@H](C)[C@H](O)[C@H](C)[C@@H](O)[C@]1(C)O | 6.59
CC[C@H]1OC(=O)[C@H](C)[C@@H](O[C@H]2C[C@@](C)(OC)[C@@H](O)[C@H](C)O2)[C@H](C)[C@@H](O[C@@H]2O[C@H](C)C[C@H](N(C)C(C)C)[C@H]2O)[C@](C)(O)C[C@@H](C)[C@H](OCC(=O)NCC(F)(F)F)[C@H](C)[C@@H](O)[C@]1(C)O | 6.80
CC[C@H]1OC(=O)[C@H](C)[C@@H](O[C@H]2C[C@@](C)(OC)[C@@H](O)[C@H](C)O2)[C@H](C)[C@@H](O[C@@H]2O[C@H](C)C[C@H](N(C)C(C)C)[C@H]2O)[C@](C)(O)C[C@@H](C)[C@H](OCC(=O)NOC)[C@H](C)[C@@H](O)[C@]1(C)O | 7.04
CC[C@H]1OC(=O)[C@H](C)[C@@H](O[C@H]2C[C@@](C)(OC)[C@@H](O)[C@H](C)O2)[C@H](C)[C@@H](O[C@@H]2O[C@H](C)C[C@H](N(C)C3CCC3)[C@H]2O)[C@](C)(O)C[C@@H](C)[C@H](OCC(=O)NC)[C@H](C)[C@@H](O)[C@]1(C)O | 6.29
CC[C@H]1OC(=O)[C@H](C)[C@@H](O[C@H]2C[C@@](C)(OC)[C@@H](O)[C@H](C)O2)[C@H](C)[C@@H](O[C@@H]2O[C@H](C)C[C@H](N(C)C(C)C)[C@H]2O)[C@](C)(O)C[C@@H](C)[C@H](OCC(=O)NC2CC2)[C@H](C)[C@@H](O)[C@]1(C)O | 7.51
CC[C@H]1OC(=O)[C@H](C)[C@@H](O[C@H]2C[C@@](C)(OC)[C@@H](O)[C@H](C)O2)[C@H](C)[C@@H](O[C@@H]2O[C@H](C)C[C@H](N(C)C(C)C)[C@H]2O)[C@](C)(O)C[C@@H](C)[C@H](OCC(N)=O)[C@H](C)[C@@H](O)[C@]1(C)O | 7.28
CC[C@H]1OC(=O)[C@H](C)[C@@H](O[C@H]2C[C@@](C)(OC)[C@@H](O)[C@H](C)O2)[C@H](C)[C@@H](O[C@@H]2O[C@H](C)C[C@H](N(C)C(C)C)[C@H]2O)[C@](C)(O)C[C@@H](C)[C@H](OCC(=O)NCc2ccccc2)[C@H](C)[C@@H](O)[C@]1(C)O | 7.10
CC[C@H]1OC(=O)[C@H](C)[C@@H](O[C@H]2C[C@@](C)(OC)[C@@H](O)[C@H](C)O2)[C@H](C)[C@@H](O[C@@H]2O[C@H](C)C[C@H](N(C)C(C)C)[C@H]2O)[C@](C)(O)C[C@@H](C)[C@H](OCC(=O)NCCOC)[C@H](C)[C@@H](O)[C@]1(C)O | 7.30
CC[C@H]1OC(=O)[C@H](C)[C@@H](O[C@H]2C[C@@](C)(OC)[C@@H](O)[C@H](C)O2)[C@H](C)[C@@H](O[C@@H]2O[C@H](C)C[C@H](N(C)C(C)C)[C@H]2O)[C@](C)(O)C[C@@H](C)[C@H](OCC(=O)Nc2ccncn2)[C@H](C)[C@@H](O)[C@]1(C)O | 7.60
CC[C@H]1OC(=O)[C@H](C)[C@@H](O[C@H]2C[C@@](C)(OC)[C@@H](O)[C@H](C)O2)[C@H](C)[C@@H](O[C@@H]2O[C@H](C)C[C@H](N(C)C)[C@H]2O)[C@](C)(O)C[C@@H](C)C(=O)[C@H](C)[C@@H](O)[C@]1(C)O | 5.92
CC[C@H]1OC(=O)[C@H](C)[C@@H](O[C@H]2C[C@@](C)(OC)[C@@H](O)[C@H](C)O2)[C@H](C)[C@@H](O[C@@H]2O[C@H](C)C[C@H](N(C)C(C)C)[C@H]2O)[C@](C)(O)C[C@@H](C)[C@H](OCC(=O)N(C)C)[C@H](C)[C@@H](O)[C@]1(C)O | 6.18
CC[C@H]1OC(=O)[C@H](C)[C@@H](O[C@H]2C[C@@](C)(OC)[C@@H](O)[C@H](C)O2)[C@H](C)[C@@H](O[C@@H]2O[C@H](C)C[C@H](N(C)C(C)C)[C@H]2O)[C@](C)(O)C[C@@H](C)[C@H](OCC(=O)NCCO)[C@H](C)[C@@H](O)[C@]1(C)O | 6.92
CC[C@H]1OC(=O)[C@H](C)[C@@H](O[C@H]2C[C@@](C)(OC)[C@@H](O)[C@H](C)O2)[C@H](C)[C@@H](O[C@@H]2O[C@H](C)C[C@H](N(C)C(C)C)[C@H]2O)[C@](C)(O)C[C@@H](C)[C@H](OCc2ccc(C(=O)NC)cc2)[C@H](C)[C@@H](O)[C@]1(C)O | 5.82
